STUDY_SYSTEM: USP9X (UniProt Q93008)
Sequence (Q93008 whole entry, the tested form may be a part): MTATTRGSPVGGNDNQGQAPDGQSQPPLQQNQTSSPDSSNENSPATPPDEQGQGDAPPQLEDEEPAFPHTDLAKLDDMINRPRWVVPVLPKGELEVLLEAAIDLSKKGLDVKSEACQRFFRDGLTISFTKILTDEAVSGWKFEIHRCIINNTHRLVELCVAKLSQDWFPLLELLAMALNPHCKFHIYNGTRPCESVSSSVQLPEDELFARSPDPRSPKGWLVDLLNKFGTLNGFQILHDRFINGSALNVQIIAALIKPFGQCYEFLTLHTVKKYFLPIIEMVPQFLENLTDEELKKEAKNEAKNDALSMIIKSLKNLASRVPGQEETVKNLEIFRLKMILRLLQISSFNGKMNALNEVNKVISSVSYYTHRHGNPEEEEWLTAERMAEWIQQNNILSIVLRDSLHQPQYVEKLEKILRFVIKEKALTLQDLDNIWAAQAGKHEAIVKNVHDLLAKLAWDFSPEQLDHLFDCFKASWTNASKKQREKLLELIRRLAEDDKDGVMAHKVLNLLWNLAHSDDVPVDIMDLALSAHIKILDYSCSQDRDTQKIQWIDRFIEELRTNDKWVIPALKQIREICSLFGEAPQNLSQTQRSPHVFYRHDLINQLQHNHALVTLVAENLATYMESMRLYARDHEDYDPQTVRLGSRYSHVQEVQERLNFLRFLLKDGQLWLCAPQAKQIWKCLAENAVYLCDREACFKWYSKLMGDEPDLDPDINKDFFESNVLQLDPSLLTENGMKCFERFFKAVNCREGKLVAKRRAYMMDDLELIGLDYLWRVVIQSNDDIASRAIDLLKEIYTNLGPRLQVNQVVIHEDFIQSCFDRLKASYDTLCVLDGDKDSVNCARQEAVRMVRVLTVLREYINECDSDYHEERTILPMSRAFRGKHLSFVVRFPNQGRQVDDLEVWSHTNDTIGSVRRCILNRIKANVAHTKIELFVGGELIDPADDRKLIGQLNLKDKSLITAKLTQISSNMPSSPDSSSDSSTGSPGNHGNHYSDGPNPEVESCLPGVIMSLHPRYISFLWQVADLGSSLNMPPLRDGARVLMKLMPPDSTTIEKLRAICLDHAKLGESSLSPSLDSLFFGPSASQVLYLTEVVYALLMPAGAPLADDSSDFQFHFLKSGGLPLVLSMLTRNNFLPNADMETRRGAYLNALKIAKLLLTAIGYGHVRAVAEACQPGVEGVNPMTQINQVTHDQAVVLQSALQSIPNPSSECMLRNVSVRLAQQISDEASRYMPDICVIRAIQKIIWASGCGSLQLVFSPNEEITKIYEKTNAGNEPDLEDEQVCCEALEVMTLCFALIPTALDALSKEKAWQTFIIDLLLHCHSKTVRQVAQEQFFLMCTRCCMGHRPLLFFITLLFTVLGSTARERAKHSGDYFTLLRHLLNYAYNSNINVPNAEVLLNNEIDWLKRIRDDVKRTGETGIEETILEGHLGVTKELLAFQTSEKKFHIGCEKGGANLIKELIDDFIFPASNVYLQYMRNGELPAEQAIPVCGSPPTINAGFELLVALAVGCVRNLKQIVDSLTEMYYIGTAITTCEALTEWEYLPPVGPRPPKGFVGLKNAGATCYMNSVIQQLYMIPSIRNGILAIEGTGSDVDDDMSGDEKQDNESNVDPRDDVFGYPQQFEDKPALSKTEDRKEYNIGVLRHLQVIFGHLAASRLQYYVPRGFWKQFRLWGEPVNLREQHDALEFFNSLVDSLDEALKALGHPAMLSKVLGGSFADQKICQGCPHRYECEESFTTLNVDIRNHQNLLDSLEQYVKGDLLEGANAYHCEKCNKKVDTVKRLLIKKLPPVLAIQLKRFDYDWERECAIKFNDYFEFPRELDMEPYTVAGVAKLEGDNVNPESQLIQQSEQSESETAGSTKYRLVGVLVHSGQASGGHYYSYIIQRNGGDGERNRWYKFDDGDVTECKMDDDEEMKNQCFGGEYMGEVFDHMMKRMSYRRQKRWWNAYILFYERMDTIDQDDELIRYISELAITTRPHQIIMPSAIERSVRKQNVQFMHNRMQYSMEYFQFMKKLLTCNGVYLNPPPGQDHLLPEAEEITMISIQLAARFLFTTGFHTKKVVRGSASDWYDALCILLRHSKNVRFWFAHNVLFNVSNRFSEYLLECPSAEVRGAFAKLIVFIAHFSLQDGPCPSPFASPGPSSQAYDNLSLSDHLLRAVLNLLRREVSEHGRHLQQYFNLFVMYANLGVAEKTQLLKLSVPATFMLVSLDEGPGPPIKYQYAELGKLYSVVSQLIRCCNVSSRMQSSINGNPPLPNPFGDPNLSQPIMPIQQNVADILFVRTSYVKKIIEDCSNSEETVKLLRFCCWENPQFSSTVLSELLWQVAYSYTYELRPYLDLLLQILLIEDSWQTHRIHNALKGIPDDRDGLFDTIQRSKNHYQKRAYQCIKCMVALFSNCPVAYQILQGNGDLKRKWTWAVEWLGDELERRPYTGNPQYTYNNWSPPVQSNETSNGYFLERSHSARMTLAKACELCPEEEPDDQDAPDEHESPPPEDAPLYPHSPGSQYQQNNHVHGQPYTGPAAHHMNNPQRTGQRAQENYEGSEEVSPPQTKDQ
METHOD_NOTES: log2 ratio of Biotin-Ahx-Ub-VS probe labelling (fragment/DMSO); higher = less target engagement (more negative = stronger competition), active = hit call of the paper (q ≤ 0.05, log2 ratio ≤ -1)
CONDITION_PARAMETERS: compound concentration: 200 uM; treatment time: 3 h
Just give me one of these, please: active, inactive

INSERT INTO assay_data (molecule, class_name) VALUES
  ('CN(CCc1ncc(Br)cn1)C(=O)CCl.Cl', 'inactive');

Each molecule tested received a call. Report the one for "Cl.O=C(CCl)NC1(c2ncccn2)CCC1" . inactive

Given "Cc1noc(N2CCN(C(=O)CCl)CC2)n1.Cl" , state the outcome it received in this test. inactive

// param item: "O=C(CCl)NCCc1ccc(F)cc1" ; yields the recorded call inactive

----------
STUDY_SYSTEM: USP47 (UniProt Q96K76)
Sequence (whole entry): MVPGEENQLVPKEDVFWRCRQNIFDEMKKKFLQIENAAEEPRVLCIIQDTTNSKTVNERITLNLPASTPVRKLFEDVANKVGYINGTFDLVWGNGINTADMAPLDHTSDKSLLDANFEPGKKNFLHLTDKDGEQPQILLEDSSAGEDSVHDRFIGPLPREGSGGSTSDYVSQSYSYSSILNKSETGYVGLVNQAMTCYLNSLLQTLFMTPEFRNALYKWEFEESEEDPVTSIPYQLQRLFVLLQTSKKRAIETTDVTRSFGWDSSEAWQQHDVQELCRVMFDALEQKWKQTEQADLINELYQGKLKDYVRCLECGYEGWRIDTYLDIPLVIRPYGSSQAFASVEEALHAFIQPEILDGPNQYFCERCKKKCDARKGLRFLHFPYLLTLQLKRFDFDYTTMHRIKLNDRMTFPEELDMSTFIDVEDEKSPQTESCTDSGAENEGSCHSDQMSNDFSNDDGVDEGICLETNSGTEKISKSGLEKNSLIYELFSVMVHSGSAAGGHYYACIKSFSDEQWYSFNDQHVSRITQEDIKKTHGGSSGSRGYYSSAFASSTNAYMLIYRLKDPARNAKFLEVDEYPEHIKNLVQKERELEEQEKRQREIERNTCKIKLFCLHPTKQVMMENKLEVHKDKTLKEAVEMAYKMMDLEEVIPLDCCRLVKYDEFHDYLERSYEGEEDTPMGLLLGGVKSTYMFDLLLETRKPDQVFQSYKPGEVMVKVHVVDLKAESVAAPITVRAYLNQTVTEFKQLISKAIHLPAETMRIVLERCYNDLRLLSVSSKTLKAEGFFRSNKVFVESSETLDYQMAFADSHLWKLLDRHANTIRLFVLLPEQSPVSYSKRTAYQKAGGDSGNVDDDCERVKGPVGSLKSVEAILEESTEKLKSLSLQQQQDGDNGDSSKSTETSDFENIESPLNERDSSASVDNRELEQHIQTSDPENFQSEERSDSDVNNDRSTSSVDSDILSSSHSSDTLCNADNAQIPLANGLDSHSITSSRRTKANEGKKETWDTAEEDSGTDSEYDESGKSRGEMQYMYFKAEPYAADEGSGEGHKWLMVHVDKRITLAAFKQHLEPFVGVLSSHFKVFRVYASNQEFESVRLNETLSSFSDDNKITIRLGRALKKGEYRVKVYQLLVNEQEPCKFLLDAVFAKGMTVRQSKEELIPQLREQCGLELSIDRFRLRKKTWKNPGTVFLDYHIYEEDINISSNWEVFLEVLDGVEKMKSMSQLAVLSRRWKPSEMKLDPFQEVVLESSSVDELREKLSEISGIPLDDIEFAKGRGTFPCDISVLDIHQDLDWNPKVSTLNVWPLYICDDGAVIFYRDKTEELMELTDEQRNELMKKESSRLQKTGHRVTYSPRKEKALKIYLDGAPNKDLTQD
METHOD_NOTES: log2 ratio of Biotin-Ahx-Ub-VS probe labelling (fragment/DMSO); higher = less target engagement (more negative = stronger competition), active = hit call of the paper (q ≤ 0.05, log2 ratio ≤ -1)
CONDITION_PARAMETERS: compound concentration: 200 uM; treatment time: 3 h
log2 ratio of Biotin-Ahx-Ub-VS probe labelling of -0.9 or higher: MET. Under -0.9: NOT MET.

Some entries whose results are on file:
INSERT INTO measurements (molecule, class_name) VALUES
  ('Cc1ccn2cc(CNC(=O)CCl)nc2c1.Cl', 'MET'),
  ('O=C(CCl)NCCC1COCCO1 (configuration not stated)', 'MET'),
  ('CN1c2ccccc2C(NC(=O)CCl)CS1(=O)=O (configuration not stated)', 'MET'),
  ('Cc1cc(Cl)ccc1NC(=O)CCl', 'MET');

Quick check, log2 ratio of Biotin-Ahx-Ub-VS probe labelling >= -0.9? "Cc1n[nH]c2c1CN(C(=O)CCl)CC2" NOT MET
